Classification field: t = log10 Koc (L/kg) at or over 2; f = log10 Koc (L/kg) under 2.

# Structure, Group label
records = [
    ("O=[N+]([O-])c1ccc(O)cc1C(F)(F)F", "t"),
    ("Nc1ccc([N+](=O)[O-])cc1", "f"),
    ("CCCCCCCCCc1ccc(O)cc1", "t"),
    ("O=C(O)c1ccccc1", "f"),
    ("Cc1ccc(/N=C/N(C)/C=N/c2ccc(C)cc2C)c(C)c1", "t"),
    ("CN(C)c1ccc(C(=N)c2ccc(N(C)C)cc2)cc1", "t"),
]

---

- Test settings: fish
Classification field. Basis: log10 biotransformation half-life (days). Definitions: low-valued: < -0.8; mid-valued: ≥ -0.8 and < 0.7; high-valued: ≥ 0.7

# Compound, Group label
rows = [
    ("Cc1cc2cccc(CCCC(C)C)c2cc1C", "mid-valued"),
    ("O=[N+]([O-])c1cc(Cl)ccc1Cl", "mid-valued"),
    ("c1ccc(Nc2ccc3ccccc3c2)cc1", "mid-valued"),
    ("CON(C)C(=O)Nc1ccc(Cl)c(Cl)c1", "low-valued"),
    ("Cc1cc(Cl)c(Cl)cc1Cl", "high-valued"),
    ("COP1(=S)OCc2ccccc2O1 (stereo not given)", "low-valued"),
    ("Cc1cc(Cl)ccc1O", "low-valued"),
    ("c1ccoc1", "low-valued"),
    ("COC(=O)c1ccccc1C(=O)c1ccccc1", "low-valued"),
    ("c1ccc(-c2ccccc2-c2ccccc2)cc1", "high-valued"),
    ("CC(C)c1ccc(C(C)C)cc1", "mid-valued"),
    ("CCc1cccc(CC)c1", "mid-valued"),
    ("Clc1ccc(C(c2ccccc2Cl)C(Cl)(Cl)Cl)cc1 (stereo not given)", "high-valued"),
    ("Clc1cc(-c2c(Cl)ccc(Cl)c2Cl)c(Cl)c(Cl)c1Cl", "high-valued"),
]
